// provenance: ChEMBL document CHEMBL1201862

# Tested on: HOP-62
# protocol: NCI tumour cell line growth inhibition, 48 h
Active and inactive are the calls of the source. No stated cut-off is given here; in the data, active = GI50 up to about 1.1 µM and inactive = higher.
outcome-measure: GI50

Ask | Record lookup: for HOP-62, what GI50 belongs to `Cn1c(=O)cc(N2CCCC2)[nH]c1=O` ?
Reply | > 100 µM (inactive)

Ask | Now the same for O=C1O[C@H]2[C@H](O)[C@@H](OC(=O)c3cc(O)c(O)c4c3[C@@H]3C1=CC(=O)C(O)(O)C3(O)O4)[C@H](OC(=O)c1cc(O)c(O)c(O)c1)O[C@@H]2CO (stereo not given in full)
Reply | > 100 µM (inactive)

Ask | Now the same for `C/C=C/[C@@]1(OC(=O)c2ccccc2)C[C@@H]2CCCC[C@@H]21`
Reply | 15.5 µM (inactive)

Ask | Now the same for CCOC(=O)CC(NCc1ccc(/N=C/c2nc3ccc(C(F)(F)F)cc3nc2-c2ccccc2)cc1)C(=O)OCC (stereo not given)
Reply | 29 µM (inactive)

Ask | Now the same for Cc1ccc(S(=O)(=O)C2c3nc4ccccc4cc3-c3nc4ccccc4nc32)cc1 (stereo not given)
Reply | > 100 µM (inactive)

Ask | Now the same for COC(=O)[C@H]1C2CC[C@@H]3C45C[C@@H](c6ccoc6)O[C@@H]4O[C@@H](O2)C31CCC5C (stereo not given in full)
Reply | > 100 µM (inactive)

Ask | Now the same for `CCOC(=O)c1ccc(NCC#CCN2CCCCC2)cc1`
Reply | > 100 µM (inactive)

Ask | Now the same for `CN1CCn2c(Br)ccc2C1=O`
Reply | > 100 µM (inactive)

Ask | Now the same for COC(=O)C(NC(=O)OC(C)(C)C)P(=O)(OC)OC (stereo not given)
Reply | > 100 µM (inactive)

Ask | Now the same for `CC(=O)/C(=C\C1=CCCO1)C(=O)Nc1ccccc1C`
Reply | > 100 µM (inactive)

Ask | Now the same for `O=C(/C=C/c1ccccc1)CCN1CCCCC1`
Reply | > 100 µM (inactive)

Ask | Now the same for CSc1nc2c(c(=O)[nH]1)N=C(c1ccc(Cl)cc1)CC(c1ccccc1)N2 (stereo not given)
Reply | 17.9 µM (inactive)

Ask | Now the same for COC(=O)CC(C)(N[S+]([O-])c1ccc(C)cc1)c1ccccc1 (stereo not given)
Reply | > 100 µM (inactive)

Ask | Now the same for CC(C(=O)n1ccnc1)N1c2ccccc2Sc2ccccc21 (stereo not given)
Reply | 67.5 µM (inactive)

Ask | Now the same for O=C(N/N=C(/CCN1CCCC1)CC(c1ccccc1)c1c(O)c2ccccc2oc1=O)c1ccncc1 (stereo not given)
Reply | > 100 µM (inactive)

Ask | Now the same for `COc1ccc(C(=O)c2sc(N(C)C)nc2-c2ccccc2)cc1`
Reply | 20.6 µM (inactive)

Ask | Now the same for CN(C)c1cccc2c1C(=O)C=CC21CCc2ccc(N(C)C)c3c(N(C)C)ccc1c23 (stereo not given)
Reply | 14.5 µM (inactive)

Ask | Now the same for COc1cccc(C2=NC(C(C)C)CO2)c1OC (stereo not given)
Reply | > 100 µM (inactive)

Ask | Now the same for `CC(C)NC(=O)OCc1nnn2c1CCC2`
Reply | > 100 µM (inactive)

Ask | Now the same for CC(C)CC1c2[nH]c3ccccc3c2C[C@H]2C(=O)NC(COC(C)(C)C)C(=O)N12 (stereo not given in full)
Reply | 46.2 µM (inactive)

Ask | Now the same for `CCCCNC1=C(C(=O)OCC)C(=O)CO1`
Reply | > 100 µM (inactive)

Ask | Now the same for `Cc1nc(N)sc1C(=O)/C=C/c1ccc(/C=C/C(=O)c2sc(NC(=O)CCCCCCCCC(=O)Nc3nc(C)c(C(=O)/C=C/c4ccc(/C=C/C(=O)c5sc(N)nc5C)cc4)s3)nc2C)cc1`
Reply | > 100 µM (inactive)

Ask | Now the same for COc1cccc2c1OC1c3ccccc3OCC1C2 (stereo not given)
Reply | > 100 µM (inactive)

Ask | Now the same for CC(C)(C)OC(=O)NNCC(O)COc1ccccc1 (stereo not given)
Reply | > 100 µM (inactive)

Ask | Now the same for CC(NNC(=O)c1cc[n+]([BH2-]C#N)cc1)c1ccc(Cl)c(Cl)c1 (stereo not given)
Reply | 45 µM (inactive)

Ask | Now the same for `COc1c(-c2ccc(F)cc2)oc2cc(O)cc(O)c2c1=O`
Reply | 18.5 µM (inactive)

Ask | Now the same for CC(C)(C)CC(C)(C)c1ccc(OCCOCC[N+](C)(C)Cc2ccccc2)cc1 [BENZETHONIUM CHLORIDE]
Reply | 8.93 µM (inactive)

Ask | Now the same for `Clc1sc(Cl)c2c1[C@H](Br)C[C@@H]2Cl`
Reply | 83.9 µM (inactive)

Ask | Now the same for COC1=CC(=O)C(C2CC(=O)c3c(O)cc(O)cc3O2)=CC1=O (stereo not given)
Reply | 17.1 µM (inactive)

Ask | Now the same for Cc1ccc(S(=O)(=O)CN2C(=O)C(c3ccccc3)(c3ccccc3)C23OC(c2ccc(Cl)cc2)=CC3=O)cc1 (stereo not given)
Reply | > 10 µM (inactive)
